From: patent US9382188B2

target: human GPR40 (Homo sapiens); construct: expressed in transfected cells; assay: Evaluation of human GPR40 agonist activity with increase in intracellular Ca2+ concentration as an index (FLIPR Tetra); type: cell-based; conditions: test compound 1 μM; CHO(dhfr-) cells stably expressing human GPR40; 100% = activity of 1 μM WO2009/048527 Example 99.2, 0% = DMSO
outcomeMeasure: Human GPR40 agonist activity (increase in intracellular Ca2+ concentration) (%)

- molecule: "COc1ccc(F)c(-c2ccc(OCc3cccc(C(CC(=O)O)C4CC4C#N)c3)cc2CC(C)(C)C)c1 (stereo not shown) [Example 88]"
  experimentalValue: 112
- molecule: "COc1ccc(F)c(-c2ccc(OCc3cccc(C(CC(=O)O)C4CC4)c3)nc2CC(C)(C)C)c1 (stereo not shown) [Example 6]"
  experimentalValue: 98
- molecule: "COc1ccc(F)c(-c2ccc(OCc3cccc(C(CC(=O)O)C4CC4C#N)c3)cc2CC(C)(C)C)c1 (stereo not shown) [Example 91]"
  experimentalValue: 97
- molecule: "COc1ccc(F)c(-c2ccc(OCc3cccc(C(CC(=O)O)C4CC4C#N)c3)cc2CC(C)(C)C)c1 (stereo not shown) [Example 90]"
  experimentalValue: 107

---

activation at 1 µM listing for selected molecules.
target: human GPR40 (Homo sapiens, UniProt O14842); construct: expressed in transfected cells; assay: Evaluation of human GPR40 agonist activity with increase in intracellular Ca2+ concentration as an index (FLIPR Tetra); assay type: cell-based; conditions: test compound 1 μM; CHO(dhfr-) cells stably expressing human GPR40; 100% = activity of 1 μM WO2009/048527 Example 99.2, 0% = DMSO
Sequence (O14842 whole entry): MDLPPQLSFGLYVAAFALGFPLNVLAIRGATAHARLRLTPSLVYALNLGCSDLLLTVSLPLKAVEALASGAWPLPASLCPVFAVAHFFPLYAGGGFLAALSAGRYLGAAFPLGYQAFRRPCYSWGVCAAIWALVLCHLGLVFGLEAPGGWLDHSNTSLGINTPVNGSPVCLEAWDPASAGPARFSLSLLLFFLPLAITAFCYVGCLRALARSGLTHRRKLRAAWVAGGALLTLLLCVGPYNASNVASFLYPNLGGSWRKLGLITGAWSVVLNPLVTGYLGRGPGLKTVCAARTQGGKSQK
outcomeMeasure: activation at 1 µM (%)

- molecule: "COc1ccc(F)c(-c2ccc(OCc3cc(C(CC(=O)O)C4CC4)ccn3)cc2CC(C)(C)C#N)c1 (stereo not drawn)"
  outcomeMeasure: "activation at 1 µM"
  valueUnit: "%"
  experimentalValue: 119
- molecule: "CC(C)(C)Cc1cc(OCc2cccc(C(CC(=O)O)C3CC3)c2)cnc1-c1cccc(O)c1 (stereo not drawn)"
  outcomeMeasure: "activation at 1 µM"
  valueUnit: "%"
  experimentalValue: 126
- molecule: "COc1ccc(F)c(-c2ccc(OCc3cccc(C(CC(=O)O)C4CCCC4)c3)cc2CC(C)(C)C)c1 (stereo not drawn)"
  outcomeMeasure: "activation at 1 µM"
  valueUnit: "%"
  experimentalValue: 105
- molecule: "COc1ccc(F)c(-c2ccc(OCc3cccc(C(CC(=O)O)C4CC4)c3)c(CCCC(C)(C)C)c2)c1 (stereo not drawn)"
  outcomeMeasure: "activation at 1 µM"
  valueUnit: "%"
  experimentalValue: 103
- molecule: "CCC(C)(C)C(F)c1cc(OCc2cccc(C(CC(=O)O)C3CC3)c2)ccc1-c1cc(OC)ccc1F (stereo not drawn)"
  outcomeMeasure: "activation at 1 µM"
  valueUnit: "%"
  experimentalValue: 126
- molecule: "COc1ccc(F)c(-c2ccc(OCc3cccc(C(CC(=O)O)C4CC4)c3)cc2CC2(C#N)CCC2)c1 (stereo not drawn)"
  outcomeMeasure: "activation at 1 µM"
  valueUnit: "%"
  experimentalValue: 100
- molecule: "COc1ccc(C)c(-c2ncc(OCc3cccc(C(CC(=O)O)C4CC4)c3)cc2CC(C)(C)C)c1 (stereo not drawn)"
  outcomeMeasure: "activation at 1 µM"
  valueUnit: "%"
  experimentalValue: 114
- molecule: "COc1ccc(F)c(-c2ccc(OCc3cccc(C(CC(=O)O)CC(=O)O)c3)cc2CC(C)(C)C)c1"
  outcomeMeasure: "activation at 1 µM"
  valueUnit: "%"
  experimentalValue: 5
- molecule: "COc1ccc(F)c(-c2ccc(OCc3cccc(C(CC(=O)O)C(C)(C)C#N)c3)cc2CC(C)(C)C)c1 (stereo not drawn)"
  outcomeMeasure: "activation at 1 µM"
  valueUnit: "%"
  experimentalValue: 90
- molecule: "CC(C)(C)Cc1cc(OCc2cccc(C(CC(=O)O)C3CC3)c2)cnc1-c1ccc(OC(F)(F)F)cc1 (stereo not drawn)"
  outcomeMeasure: "activation at 1 µM"
  valueUnit: "%"
  experimentalValue: 8
- molecule: "CCC(C)(C)C(OC)c1cc(OCc2cccc(C(CC(=O)O)C3CC3)c2)ccc1-c1cc(OC)ccc1F (stereo not drawn)"
  outcomeMeasure: "activation at 1 µM"
  valueUnit: "%"
  experimentalValue: 119
- molecule: "COc1ccc(F)c(-c2ccc(OCc3cccc(C(CC(=O)O)C4CC4)c3)cc2CC2(C)CCCC2)c1 (stereo not drawn)"
  outcomeMeasure: "activation at 1 µM"
  valueUnit: "%"
  experimentalValue: 118
- molecule: "COc1ccc(F)c(-c2ccc(OCc3cccc(C(CC(=O)O)C4CC4)c3)cc2-c2ccc(C(F)(F)F)cc2)c1 (stereo not drawn)"
  outcomeMeasure: "activation at 1 µM"
  valueUnit: "%"
  experimentalValue: 98
- molecule: "COc1ccc(F)c(-c2ccc(OCc3cccc(C(CC(=O)O)C4CC4)c3)cc2C(C)C(C)(C)C)c1 (stereo not drawn)"
  outcomeMeasure: "activation at 1 µM"
  valueUnit: "%"
  experimentalValue: 96
- molecule: "COCCCOc1ccc(F)c(-c2ncc(OCc3cccc(C(CC(=O)O)C4CC4)c3)cc2CC(C)(C)C)c1 (stereo not drawn)"
  outcomeMeasure: "activation at 1 µM"
  valueUnit: "%"
  experimentalValue: 1
- molecule: "CC(C)(C)Cc1cc(OCc2cccc(C(CC(=O)O)C3CC3)c2)cnc1-c1ccccc1 (stereo not drawn)"
  outcomeMeasure: "activation at 1 µM"
  valueUnit: "%"
  experimentalValue: 55
- molecule: "COc1ccc(F)c(-c2ccc(OCc3cccc(C(CC(=O)O)C4CC4)c3)cc2CCC(C)(C)C)c1 (stereo not drawn)"
  outcomeMeasure: "activation at 1 µM"
  valueUnit: "%"
  experimentalValue: 106
- molecule: "COc1ccc(F)c(-c2ccc(OCc3cc(C(CC(=O)O)C4CC4)ncn3)nc2CC(C)(C)C)c1 (stereo not drawn)"
  outcomeMeasure: "activation at 1 µM"
  valueUnit: "%"
  experimentalValue: 103
- molecule: "COc1ccc(F)c(-c2ccc(OCc3cccc(C(CC(=O)O)C4CC4)c3)cc2-c2cnc(C)s2)c1 (stereo not drawn)"
  outcomeMeasure: "activation at 1 µM"
  valueUnit: "%"
  experimentalValue: 120
- molecule: "COc1ccc(Cl)c(-c2ncc(OCc3cccc(C(CC(=O)O)C4CC4)c3)cc2CC(C)(C)C)c1 (stereo not drawn)"
  outcomeMeasure: "activation at 1 µM"
  valueUnit: "%"
  experimentalValue: 115
- molecule: "COc1ccc(F)c(-c2ccc(OCc3cccc(C(CC(=O)O)C4CC4)c3)cc2COCC(C)(C)C)c1 (stereo not drawn)"
  outcomeMeasure: "activation at 1 µM"
  valueUnit: "%"
  experimentalValue: 103
- molecule: "CCCCCOc1ccc(F)c(-c2ncc(OCc3cccc(C(CC(=O)O)C4CC4)c3)cc2CC(C)(C)C)c1 (stereo not drawn)"
  outcomeMeasure: "activation at 1 µM"
  valueUnit: "%"
  experimentalValue: 1
- molecule: "CCC(CC(=O)O)c1cccc(COc2ccc(-c3cc(OC)ccc3F)c(CC(C)(C)C)c2)c1 (stereo not drawn)"
  outcomeMeasure: "activation at 1 µM"
  valueUnit: "%"
  experimentalValue: 94
- molecule: "COc1cc(OC)cc(-c2ncc(OCc3cccc(C(CC(=O)O)C4CC4)c3)cc2CC(C)(C)C)c1 (stereo not drawn)"
  outcomeMeasure: "activation at 1 µM"
  valueUnit: "%"
  experimentalValue: 31
- molecule: "COc1ccc(F)c(-c2ccc(OCc3cccc(C(CC(=O)O)C4CCCCC4)c3)cc2CC(C)(C)C)c1 (stereo not drawn)"
  outcomeMeasure: "activation at 1 µM"
  valueUnit: "%"
  experimentalValue: 114
- molecule: "COc1ccc(F)c(-c2ccc(OCc3cccc(C(CC(=O)O)C4CC4)c3)cc2CC2(C#N)CC2)c1 (stereo not drawn)"
  outcomeMeasure: "activation at 1 µM"
  valueUnit: "%"
  experimentalValue: 119
- molecule: "C=CCCC(CC(=O)O)c1cccc(COc2ccc(-c3cc(OC)ccc3F)c(CC(C)(C)C)c2)c1 (stereo not drawn)"
  outcomeMeasure: "activation at 1 µM"
  valueUnit: "%"
  experimentalValue: 107
- molecule: "COc1ccc(F)c(-c2ccc(OCc3cccc(C(CCCC#N)CC(=O)O)c3)cc2CC(C)(C)C)c1 (stereo not drawn)"
  outcomeMeasure: "activation at 1 µM"
  valueUnit: "%"
  experimentalValue: 94
- molecule: "COc1ccc(F)c(-c2ccc(N(C)Cc3cccc(C(CC(=O)O)C4CC4)c3)cc2CC(C)(C)C)c1 (stereo not drawn)"
  outcomeMeasure: "activation at 1 µM"
  valueUnit: "%"
  experimentalValue: 103
- molecule: "COc1cc(-c2ncc(OCc3cccc(C(CC(=O)O)C4CC4)c3)cc2CC(C)(C)C)c(F)cn1 (stereo not drawn)"
  outcomeMeasure: "activation at 1 µM"
  valueUnit: "%"
  experimentalValue: 106
